- Test system: Bacillus spizizenii
- Procedure Text: Antibacterial activity against Bacillus subtilis ATCC 6633 after 24 hrs by two-fold serial dilution method
- Format: functional
- Condition Description: ATCC 6633, 24 h
Record form. Attribute: MIC. Fill in for each entry.
# answer = value followed by unit

QUERY: Quick one: MIC for COC(=O)C(NP(=O)(OCCN(C)c1cc(=O)oc2c(C)cccc12)Oc1ccccc1)C(C)C (centres undefined) ?
RESULT: 32 µg/mL

QUERY: Continue with COC(=O)C(C)NP(=O)(OCCN(C)c1cc(=O)oc2c(C)cccc12)Oc1ccccc1 (centres undefined)
RESULT: 512 µg/mL

QUERY: Next: COC(=O)C(C)NP(=O)(OCCN(C)c1cc(=O)oc2cc(C)ccc12)Oc1ccccc1 (centres undefined)
RESULT: 256 µg/mL

QUERY: Now try CC1COc2c(N3CCN(C)CC3)c(F)cc3c(=O)c(C(=O)O)cn1c23 (centres undefined) .
RESULT: 0.25 µg/mL
